target: BRM (Homo sapiens, UniProt P51531); construct: made in house; host or cells: High Five insect cells; test: ATPase catalytic activity of BRM, ADP-Glo in vitro biochemical assay; details: ratio of BRG1 IC50 to BRM IC50
Sequence (P51531 whole entry): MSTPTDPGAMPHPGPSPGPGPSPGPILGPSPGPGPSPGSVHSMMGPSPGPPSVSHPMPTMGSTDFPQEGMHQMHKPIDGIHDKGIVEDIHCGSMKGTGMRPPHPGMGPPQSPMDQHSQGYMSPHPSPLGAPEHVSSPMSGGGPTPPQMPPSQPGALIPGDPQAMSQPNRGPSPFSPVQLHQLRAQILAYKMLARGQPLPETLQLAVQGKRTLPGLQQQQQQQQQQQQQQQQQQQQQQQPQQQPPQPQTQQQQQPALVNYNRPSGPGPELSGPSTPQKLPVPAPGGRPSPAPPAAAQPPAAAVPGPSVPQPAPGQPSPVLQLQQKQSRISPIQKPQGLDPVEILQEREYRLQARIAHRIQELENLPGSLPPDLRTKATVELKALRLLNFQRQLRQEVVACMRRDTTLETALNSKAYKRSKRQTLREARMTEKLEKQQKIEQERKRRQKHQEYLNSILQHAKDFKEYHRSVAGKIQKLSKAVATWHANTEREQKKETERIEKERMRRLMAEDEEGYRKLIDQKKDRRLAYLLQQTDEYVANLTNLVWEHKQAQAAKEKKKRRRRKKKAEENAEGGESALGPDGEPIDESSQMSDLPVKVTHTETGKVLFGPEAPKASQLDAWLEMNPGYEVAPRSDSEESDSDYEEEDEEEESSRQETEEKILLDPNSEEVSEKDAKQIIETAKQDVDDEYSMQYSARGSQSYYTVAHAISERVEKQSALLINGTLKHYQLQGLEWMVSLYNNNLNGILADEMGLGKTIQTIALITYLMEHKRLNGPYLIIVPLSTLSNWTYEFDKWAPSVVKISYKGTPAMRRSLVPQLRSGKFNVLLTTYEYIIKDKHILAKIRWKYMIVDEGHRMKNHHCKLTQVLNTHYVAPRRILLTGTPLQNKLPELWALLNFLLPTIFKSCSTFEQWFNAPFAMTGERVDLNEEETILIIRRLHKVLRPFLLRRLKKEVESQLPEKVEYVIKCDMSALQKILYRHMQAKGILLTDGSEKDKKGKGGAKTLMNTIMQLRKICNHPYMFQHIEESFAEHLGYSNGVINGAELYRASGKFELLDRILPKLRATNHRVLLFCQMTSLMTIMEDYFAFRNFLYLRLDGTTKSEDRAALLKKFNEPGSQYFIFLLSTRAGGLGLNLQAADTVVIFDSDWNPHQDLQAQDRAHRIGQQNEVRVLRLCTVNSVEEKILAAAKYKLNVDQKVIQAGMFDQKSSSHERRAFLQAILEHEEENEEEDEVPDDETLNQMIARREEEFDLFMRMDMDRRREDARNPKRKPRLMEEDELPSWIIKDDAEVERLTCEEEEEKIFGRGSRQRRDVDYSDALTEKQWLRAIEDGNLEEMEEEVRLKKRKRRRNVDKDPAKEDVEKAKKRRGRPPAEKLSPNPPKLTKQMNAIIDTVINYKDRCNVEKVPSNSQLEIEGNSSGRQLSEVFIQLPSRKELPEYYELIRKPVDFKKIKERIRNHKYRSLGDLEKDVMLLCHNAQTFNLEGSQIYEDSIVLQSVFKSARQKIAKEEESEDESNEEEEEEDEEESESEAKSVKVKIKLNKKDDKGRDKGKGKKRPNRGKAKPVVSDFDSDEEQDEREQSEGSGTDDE
We label by threshold. Values of Ratio* strictly beneath 10 are t. Values of 10 and up are f.

Solved entries (count: 5):
O=C(NCc1cc2nc(-c3cncc(C4CC4)n3)ccc2cn1)c1cnc2c(c1)S(=O)(=O)CCCC2(F)F | f
CCOc1nc(-c2ccc3cnc(CNC(=O)c4ccc5c(c4)S(=O)(=O)CCOC5)cc3n2)ccc1C | f
CCO[C@H](C)c1ccc2c(n1)N(c1ccc3cnc(CNC(=O)c4ccc5c(c4)S(=O)(=O)CCOC5)cc3n1)CCC2 | f
CO[C@@H]1COc2c(-c3ccc4cnc(CNC(=O)c5ccc6c(c5)S(=O)(=O)CCOC6)cc4n3)cccc2N(C)C1 | t
COC[C@@H]1COc2c(-c3ccc4cnc(CNC(=O)c5ccc6c(c5)S(=O)(=O)CCOC6)cc4n3)cccc2N1C | t

Challenge: Item "O=C(NCc1cc2nc(N3CCOc4ccc(C(F)F)nc43)ccc2cn1)c1ccc2c(c1)S(=O)(=O)CCOC2" : Ratio* beneath 10, strictly?
Response given: f

Challenge: A record lists "Cc1ccc2c(n1)N(c1ccc3cnc(CNC(=O)c4ccc5c(c4)S(=O)(=O)CCCO5)cc3n1)CCC2" . Is its Ratio* below 10?
Response given: f

====

biological target: BRG-1 (Homo sapiens, UniProt P51532); construct: made in house; host or cells: High Five insect cells; assay: ATPase catalytic activity of BRG-1, ADP-Glo in vitro biochemical assay; conditions: ADP-Glo ATPase assay, 30 nM BRG-1, 400 μM ATP; read-out: BRG1 IC50
Sequence (P51532 whole entry): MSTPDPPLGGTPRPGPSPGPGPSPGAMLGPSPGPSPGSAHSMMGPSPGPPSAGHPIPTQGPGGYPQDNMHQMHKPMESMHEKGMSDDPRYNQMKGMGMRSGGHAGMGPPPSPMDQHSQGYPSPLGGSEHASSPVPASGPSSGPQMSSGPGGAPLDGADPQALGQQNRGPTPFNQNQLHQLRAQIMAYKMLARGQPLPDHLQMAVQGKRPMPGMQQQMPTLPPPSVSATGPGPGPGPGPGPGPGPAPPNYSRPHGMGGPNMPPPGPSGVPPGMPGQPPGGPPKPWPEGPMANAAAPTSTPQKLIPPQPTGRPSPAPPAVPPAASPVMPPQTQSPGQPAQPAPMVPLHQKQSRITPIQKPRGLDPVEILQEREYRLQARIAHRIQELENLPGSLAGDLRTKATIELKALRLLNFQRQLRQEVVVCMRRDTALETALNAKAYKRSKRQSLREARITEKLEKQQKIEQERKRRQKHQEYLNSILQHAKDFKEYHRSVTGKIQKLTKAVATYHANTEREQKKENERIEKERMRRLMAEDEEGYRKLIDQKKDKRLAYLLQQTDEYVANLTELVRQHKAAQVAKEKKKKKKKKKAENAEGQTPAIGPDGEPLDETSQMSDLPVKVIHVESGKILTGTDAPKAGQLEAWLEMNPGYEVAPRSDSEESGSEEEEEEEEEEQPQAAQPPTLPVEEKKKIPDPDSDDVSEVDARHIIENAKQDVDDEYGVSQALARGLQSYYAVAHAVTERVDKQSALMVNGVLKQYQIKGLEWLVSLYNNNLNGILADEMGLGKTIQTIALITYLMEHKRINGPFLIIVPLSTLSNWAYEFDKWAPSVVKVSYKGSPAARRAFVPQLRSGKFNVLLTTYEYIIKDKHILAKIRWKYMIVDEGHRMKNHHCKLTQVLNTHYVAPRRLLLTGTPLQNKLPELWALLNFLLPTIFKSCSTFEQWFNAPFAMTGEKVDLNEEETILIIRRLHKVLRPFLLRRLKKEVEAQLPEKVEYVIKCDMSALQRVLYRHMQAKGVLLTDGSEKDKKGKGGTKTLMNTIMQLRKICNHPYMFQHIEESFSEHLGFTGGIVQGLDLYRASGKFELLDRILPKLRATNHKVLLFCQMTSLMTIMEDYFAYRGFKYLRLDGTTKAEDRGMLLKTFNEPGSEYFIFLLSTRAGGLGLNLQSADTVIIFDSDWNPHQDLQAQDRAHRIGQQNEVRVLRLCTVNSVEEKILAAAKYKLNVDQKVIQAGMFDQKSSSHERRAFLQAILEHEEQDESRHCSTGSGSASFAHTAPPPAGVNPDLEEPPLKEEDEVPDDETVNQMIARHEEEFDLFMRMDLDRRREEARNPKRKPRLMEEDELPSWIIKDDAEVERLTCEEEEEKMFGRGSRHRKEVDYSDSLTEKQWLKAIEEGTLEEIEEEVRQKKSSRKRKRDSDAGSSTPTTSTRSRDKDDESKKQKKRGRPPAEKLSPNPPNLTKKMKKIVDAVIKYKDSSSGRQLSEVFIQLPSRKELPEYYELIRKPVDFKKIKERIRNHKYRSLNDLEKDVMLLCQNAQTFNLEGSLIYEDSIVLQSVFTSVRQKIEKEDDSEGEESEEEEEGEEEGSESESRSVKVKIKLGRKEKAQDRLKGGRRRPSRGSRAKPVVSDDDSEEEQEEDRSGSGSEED
EXPERIMENTAL READOUT: IC50

O=C(NCc1cc2nc(N3CCOc4cc(C5CC5)ncc43)ccc2cn1)c1ccc2c(c1)S(=O)(=O)CCOC2 | 221 nM
O=C(NCc1cc2nc(-c3cccc(C4=CCOCC4)n3)ccc2cn1)c1ccc2c(c1)S(=O)(=O)CCOC2 | 101 nM
CN(c1cnc2c(c1)OCCN2c1ccc2cnc(CNC(=O)c3ccc4c(c3)S(=O)(=O)CCOC4)cc2n1)C1CC(F)(F)C1 | 143 nM
Cc1cc(-c2cccc(-c3ccc4cnc(CNC(=O)c5ccc6c(c5)S(=O)(=O)CCOC6)cc4n3)n2)cc(C)n1 | 9.9 nM
C[C@@H]1CN(c2cccc(-c3ccc4cnc(CNC(=O)c5ccc6c(c5)S(=O)(=O)CCCO6)cc4n3)n2)C[C@H](C)O1 | 116 nM
CC1(c2cccc(-c3ccc4cnc(CNC(=O)c5ccc6c(c5)S(=O)(=O)CCOC6)cc4n3)n2)CC1 | 174 nM

Challenge: # value lookup — system BRG-1 (Homo sapiens, UniProt P51532), readout IC50, item "COc1cnc2c(c1)CCN2c1ccc2cnc(CNC(=O)c3ccc4c(c3)S(=O)(=O)CCOC4)cc2n1"
Response given: 298 nM

Challenge: // lookup IC50 | system=BRG-1 (Homo sapiens, UniProt P51532) | key= "O=C(NCc1cc2nc(N3CCCc4ccc(C5CCC5)nc43)ccc2cn1)c1ccc2c(c1)S(=O)(=O)CCOC2"
Response given: 814 nM

Challenge: BRG-1 (Homo sapiens, UniProt P51532) / IC50 / "O=C(NCc1cc2nc(-c3cccc(OC4COC4)c3)ccc2cn1)c1ccc2c(c1)S(=O)(=O)CCOC2" : value?
Response given: 3170 nM

====

biological target: BRM (Homo sapiens, UniProt P51531); construct: made in house; host or cells: High Five insect cells; experiment: ATPase catalytic activity of BRM, ADP-Glo in vitro biochemical assay; details: selectivity ratio BRG1 IC50 / BRM IC50
EXPERIMENTAL READOUT: Ratio* (BRG1 IC50 (μM) divided by BRM IC50 (μM))
// return a plain number; no unit text

CC(C)(F)c1cccc(-c2ccc3cnc(CNC(=O)c4ccc5c(c4)S(=O)(=O)CCOC5)cc3n2)n1 | 10.26
CO[C@@H]1CCCN(c2cccc(-c3ccc4cnc(CNC(=O)c5ccc6c(c5)S(=O)(=O)CCOC6)cc4n3)n2)C1 | 13.36
CN(C)c1cccc(-c2ccc3cnc(CNC(=O)c4ccc5c(c4)S(=O)(=O)CCOC5)cc3n2)n1 | 12.63

Challenge: Which Ratio* (BRG1 IC50 (μM) divided by BRM IC50 (μM)) value is on record for "CCOc1cccc(-c2ccc3cnc(CNC(=O)c4cc(F)c5c(c4)S(=O)(=O)CCOC5)cc3n2)n1" ?
Response given: 18.33

====

Biological target: BRG-1 (Homo sapiens)
Construct: made in house; host or cells: High Five insect cells
Experiment: ATPase catalytic activity of BRG-1, ADP-Glo in vitro biochemical assay
Details: ATPase catalytic activity, ADP-Glo; 30 nM BRG-1, 400 μM ATP; read-out: BRG1 IC50
Method: The ATPase catalytic activity of BRM or BRG-1 was measured by an in vitro biochemical assay using ADP-Glo™ (Promega, V9102). The ADP-Glo™ kinase assay is performed in two steps once the reaction is complete. The first step is to deplete any unconsumed ATP in the reaction. The second step is to convert the reaction product ADP to ATP, which will be utilized by the luciferase to generate luminesce and be detected by a luminescence reader, such as Envision. […]
EXPERIMENTAL READOUT: pIC50
A value of pIC50 is the negative decimal logarithm of a concentration given in moles per litre.

// solved cases for pIC50 follow
O=C(NCc1cc2nc(N3CCCc4ccc(OCC(F)F)nc43)ccc2cn1)c1ccc2c(c1)S(=O)(=O)CCOC2 | 5.72
C[C@@H](C1COC1)N(C)c1cccc(-c2ccc3cnc(CNC(=O)c4ccc5c(c4)S(=O)(=O)CCOC5)cc3n2)n1 | 6.05

Now let's try a different one.
Challenge: Quick check: pIC50 of "Cc1cc(C(=O)NCc2cc3nc(-c4cccc(N5C[C@@H](C)O[C@@H](C)C5)n4)ccc3cn2)cc2c1O[C@@H](C)CCS2(=O)=O" ?
Response given: 5.99

====

target: BRM (Homo sapiens, UniProt P51531); construct: made in house; host or cells: High Five insect cells; assay: ATPase catalytic activity of BRM, ADP-Glo in vitro biochemical assay; conditions: ATPase catalytic activity, ADP-Glo; 30 nM BRM, 400 μM ATP
pIC50: −log10 of the molar value.
Decide by pIC50: equal to or exceeding 8 means MET, less means NOT MET.

Observe how each entry below is paired with its result.
COc1cccc2c1CCCN2c1ccc2cnc(CNC(=O)c3ccc4c(c3)S(=O)(=O)CCOC4)cc2n1 | MET
C[C@H]1COCc2ccc(C(=O)NCc3cc4nc(-c5cccc([C@H]6CC6(F)F)n5)ccc4cn3)cc2S1(=O)=O | NOT MET

For the next question, use this compound.
Challenge: Entry "Cc1cc(C(=O)NCc2cc3nc(-c4cccc(N5C[C@@H](C)O[C@@H](C)C5)n4)ccc3cn2)cc2c1COC[C@@H](C)S2(=O)=O" : is its pIC50 no less than 8?
Response given: NOT MET

====

target: BRM (Homo sapiens, UniProt P51531); construct: made in house; host or cells: High Five insect cells; assay: ATPase catalytic activity of BRM, ADP-Glo in vitro biochemical assay; conditions: ratio of BRG1 IC50 to BRM IC50
# Ratio* annotations
Keep it simple and answer with nothing but the number.

Challenge: Provide the documented Ratio* with BRM (Homo sapiens, UniProt P51531) as the system for "CCOc1nc(-c2ccc3cnc(CNC(=O)c4ccc5c(c4)S(=O)(=O)[C@@H](C)COC5)cc3n2)ccc1F"
Response given: 15.92

Challenge: Missing value: Ratio*, BRM (Homo sapiens, UniProt P51531), entry "C[C@@H]1CCS(=O)(=O)c2cc(C(=O)NCc3cc4nc(-c5cccc(N6C[C@@H](C)O[C@@H](C)C6)n5)ccc4cn3)ccc2O1" . Fill in?
Response given: 21.63

Challenge: Form entry - test system: BRM (Homo sapiens, UniProt P51531); read-out: Ratio*; compound: "O=C(NCc1cc2nc(N3CCCc4ccc(OC(F)F)nc43)ccc2cn1)c1ccc2c(c1)S(=O)(=O)CCOC2"
Response given: 8.21

Challenge: // fetch BRM (Homo sapiens, UniProt P51531) Ratio* for "CO[C@H]1CCN(c2cccc(-c3ccc4cnc(CNC(=O)c5ccc6c(c5)S(=O)(=O)CCOC6)cc4n3)n2)C[C@H]1C"
Response given: 11.79

Challenge: Find Ratio* (BRM (Homo sapiens, UniProt P51531)) for the entry "CC[C@@H]1CCS(=O)(=O)c2cc(C(=O)NCc3cc4nc(-c5cccc(N6C[C@@H](C)O[C@@H](C)C6)n5)ccc4cn3)ccc2O1"
Response given: 16.67

Challenge: # returns recorded Ratio* (system: BRM (Homo sapiens, UniProt P51531)) for "C[C@@H]1CN(c2cccc(-c3ccc4cnc(CNC(=O)c5ccc6c(c5)S(=O)(=O)[C@H](C)CO[C@H]6C)cc4n3)n2)C[C@H](C)O1"
Response given: 1.10

Challenge: // fetch BRM (Homo sapiens, UniProt P51531) Ratio* for "O=C(NCc1cc2nc(N3CCOc4ccc([C@H]5CC5(F)F)nc43)ccc2cn1)c1ccc2c(c1)S(=O)(=O)CCOC2"
Response given: 52.11

Challenge: Notebook entry, BRM (Homo sapiens, UniProt P51531) assay: Ratio* of "C[C@H]1CCOc2c(F)cc(C(=O)NCc3cc4nc(N5CCOc6cccnc65)ccc4cn3)cc2S1(=O)=O" = ?
Response given: 11.68

Challenge: Look up Ratio* with BRM (Homo sapiens, UniProt P51531) for this compound: "O=C(NCc1cc2nc(N3CCCc4ccc([C@@H]5CC5(F)F)nc43)ccc2cn1)c1ccc2c(c1)S(=O)(=O)CCOC2"
Response given: 21.94

Challenge: Value wanted: Ratio* (BRM (Homo sapiens, UniProt P51531)) of entry "O=C(NCc1cc2nc(N3CCCc4ccc(F)nc43)ccc2cn1)c1ccc2c(c1)S(=O)(=O)CCOC2"
Response given: 10.88

Challenge: Form field: Ratio* recorded for "C[C@H]1COCc2ccc(C(=O)NCc3cc4nc(-c5cccc(C6CC6)n5)ccc4cn3)cc2S1(=O)=O" with BRM (Homo sapiens, UniProt P51531) (enter value)
Response given: 30.98

Challenge: Record O=C(NCc1cc2nc(-c3ccc4c(n3)N3CCOCC3C4)ccc2cn1)c1ccc2c(c1)S(=O)(=O)CCOC2 (centres unmarked) : what is its Ratio* with BRM (Homo sapiens, UniProt P51531)?
Response given: 6.83

The reported measurements were obtained from patent US20230416248A1.
